target: Leukotriene A-4 hydrolase (Homo sapiens); assay: In vitro inhibition of recombinant human leukotriene A4 hydrolase.
Sequence (P09960 whole entry): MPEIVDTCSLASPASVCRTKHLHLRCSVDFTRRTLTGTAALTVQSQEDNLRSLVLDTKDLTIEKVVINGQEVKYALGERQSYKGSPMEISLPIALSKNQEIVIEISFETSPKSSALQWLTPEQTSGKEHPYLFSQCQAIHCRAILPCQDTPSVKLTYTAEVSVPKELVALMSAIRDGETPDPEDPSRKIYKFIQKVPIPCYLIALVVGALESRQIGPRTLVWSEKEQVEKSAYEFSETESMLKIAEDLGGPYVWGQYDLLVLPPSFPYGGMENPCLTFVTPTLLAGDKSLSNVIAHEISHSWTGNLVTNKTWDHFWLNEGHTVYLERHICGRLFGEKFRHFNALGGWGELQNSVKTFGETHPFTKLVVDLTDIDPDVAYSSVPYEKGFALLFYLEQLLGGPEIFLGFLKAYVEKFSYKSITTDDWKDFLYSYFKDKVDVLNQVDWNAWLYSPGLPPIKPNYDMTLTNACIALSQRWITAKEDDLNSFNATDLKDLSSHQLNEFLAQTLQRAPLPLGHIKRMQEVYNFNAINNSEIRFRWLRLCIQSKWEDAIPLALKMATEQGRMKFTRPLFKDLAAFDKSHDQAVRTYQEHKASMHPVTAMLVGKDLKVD
metric: IC50 (nM)
Value expressed in nM; do not type the unit.

Completed entries (count: 2):
> print(dat)
                                smiles.text  observed.measurement
1  N#Cc1ccc2c(ncn2CCOc2ccc(Cc3ccccc3)cc2)n1                   0.8
2    N#Cc1nccc2c1ncn2CCOc1ccc(Cc2ccccc2)cc1                    31

Alright, here's another compound for you.
*Q* Item under review: `Oc1ccc2ncn(CCOc3ccc(Cc4ccccc4)cc3)c2n1` . Reported IC50?
*A* 500
